All values here come from patent EP2262764B1.

Some compounds, each annotated with its measured TD50.
system: neurologic toxicity; assay: neurologic toxicity (Tox), rotorod test, mice ip; conditions: mouse, in vivo, ip, Tox, TD50, Mice (ip); time in hours in second brackets; [x; y] = between doses x and y

[
  {
    "compound": "COC[C@@H](NC(C)=O)C(=O)NCc1ccc(N=[N+]=[N-])cc1 [(R)-5, reference compound]",
    "TD50": "46.2 mg/kg"
  },
  {
    "compound": "COCC#Cc1ccc(CNC(=O)[C@@H](COC)NC(C)=O)cc1 [(R)-6, reference compound]",
    "TD50": "10 to 30 mg/kg"
  },
  {
    "compound": "COC[C@H](NC(C)=O)C(=O)NCc1ccc(OCc2cccc(F)c2)cc1 [(S)-3]",
    "TD50": "> 300 mg/kg"
  }
]
